# Measurement notes: Oral bioavailability in rat
# Type: ADME, organism-based
# Test parameters: in vivo
Recorded bioavailability values for a group of molecules are listed next.
Quantity: bioavailability

CC(C)c1onc(COc2c(Cl)cccc2Cl)c1COc1ccc(/C=C/c2cccc(C(=O)O)c2)c(Cl)c1 | 9.2%
CC(C)c1onc(-c2c(Cl)cncc2Cl)c1COc1ccc(/C=C/c2cccc(C(=O)O)c2)c(Cl)c1 | 7.8%
CC(C)c1onc(COc2c(Cl)cc(F)cc2Cl)c1COc1ccc(/C=C/c2cccc(C(=O)O)c2)c(Cl)c1 | 1.9%
CC(C)c1onc(CNc2c(Cl)cccc2Cl)c1COc1ccc(/C=C/c2cccc(C(=O)O)c2)c(Cl)c1 | 2.6%

====

Below, each entry is listed with its recorded %max.
# Tested system: UniProt Q96RI1
# Sequence (whole entry): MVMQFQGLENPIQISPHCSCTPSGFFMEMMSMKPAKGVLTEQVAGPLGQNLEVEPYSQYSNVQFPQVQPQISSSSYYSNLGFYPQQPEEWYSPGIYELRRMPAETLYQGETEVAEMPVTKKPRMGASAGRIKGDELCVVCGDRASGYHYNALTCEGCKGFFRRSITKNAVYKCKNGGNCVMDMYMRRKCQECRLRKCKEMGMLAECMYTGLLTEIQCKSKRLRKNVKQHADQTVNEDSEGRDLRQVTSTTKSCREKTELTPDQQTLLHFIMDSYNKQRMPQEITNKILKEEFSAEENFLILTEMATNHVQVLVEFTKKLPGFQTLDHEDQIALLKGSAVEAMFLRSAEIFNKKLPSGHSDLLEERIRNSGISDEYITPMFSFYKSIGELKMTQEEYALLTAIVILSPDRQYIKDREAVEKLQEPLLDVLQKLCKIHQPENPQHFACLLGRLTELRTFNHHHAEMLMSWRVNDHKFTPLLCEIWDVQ
# Measurement notes: Agonist activity at human FXR assessed as SRC1 peptide interaction with receptor ligand binding domain by FRET assay relative to GW-4064
Quantity: %max

CC(C)c1onc(CCc2c(Cl)cccc2Cl)c1COc1ccc(/C=C/c2cccc(C(=O)O)c2)c(Cl)c1 | 105%
CC(C)c1onc(COc2c(Cl)cc(F)cc2Cl)c1COc1ccc(/C=C/c2cccc(C(=O)O)c2)c(Cl)c1 | 112%
CC(C)c1onc(COc2cccc(Cl)c2)c1COc1ccc(/C=C/c2cccc(C(=O)O)c2)c(Cl)c1 | 51%
CC[C@H](C)c1onc(-c2c(Cl)cccc2Cl)c1COc1ccc(/C=C/c2cccc(C(=O)O)c2)c(Cl)c1 | 96%
CC(C)c1onc(CO)c1COc1ccc(/C=C/c2cccc(C(=O)O)c2)c(Cl)c1 | 22%
CC(C)c1onc(COc2c(F)cc(F)cc2F)c1COc1ccc(/C=C/c2cccc(C(=O)O)c2)c(Cl)c1 | 106%
CC(C)c1onc(COc2ccc3ccccc3c2)c1COc1ccc(/C=C/c2cccc(C(=O)O)c2)c(Cl)c1 | 65%
CC[C@@H](C)c1onc(-c2c(Cl)cccc2Cl)c1COc1ccc(/C=C/c2cccc(C(=O)O)c2)c(Cl)c1 | 100%

====

molecules and their reported %max
# Tested system: Bile acid receptor (Homo sapiens) (UniProt Q96RI1)
# Sequence (whole entry): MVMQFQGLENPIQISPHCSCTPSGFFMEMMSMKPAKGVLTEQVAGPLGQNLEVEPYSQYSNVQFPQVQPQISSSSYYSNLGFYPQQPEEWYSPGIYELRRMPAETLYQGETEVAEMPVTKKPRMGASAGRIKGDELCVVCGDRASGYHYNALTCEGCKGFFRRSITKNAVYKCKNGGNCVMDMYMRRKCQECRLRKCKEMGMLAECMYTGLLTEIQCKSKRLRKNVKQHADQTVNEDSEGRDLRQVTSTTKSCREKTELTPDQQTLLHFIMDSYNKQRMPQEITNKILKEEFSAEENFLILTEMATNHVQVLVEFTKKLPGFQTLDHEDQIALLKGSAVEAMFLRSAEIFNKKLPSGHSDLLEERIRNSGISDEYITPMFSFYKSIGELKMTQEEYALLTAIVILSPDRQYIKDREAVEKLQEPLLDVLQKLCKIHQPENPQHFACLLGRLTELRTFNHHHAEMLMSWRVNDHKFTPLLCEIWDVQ
# Measurement notes: Agonist activity at human FXR transfected in african green monkey CV1 cells by luciferase reporter gene transient transfection assay relative to GW-4064
# Format: functional, cell-based
# Test parameters: CV-1
Quantity: %max (%)

CC[C@@H](C)c1onc(-c2c(Cl)cccc2Cl)c1COc1ccc(/C=C/c2cccc(C(=O)O)c2)c(Cl)c1 | 105
CC(C)c1onc(CS(=O)(=O)c2c(Cl)cccc2Cl)c1COc1ccc(/C=C/c2cccc(C(=O)O)c2)c(Cl)c1 | 68
CC(C)c1onc(COc2cc(Cl)ccc2Cl)c1COc1ccc(/C=C/c2cccc(C(=O)O)c2)c(Cl)c1 | 37
CC(C)c1onc(COc2cccc(Cl)c2)c1COc1ccc(/C=C/c2cccc(C(=O)O)c2)c(Cl)c1 | 42
CC(C)c1onc(COc2ccccc2)c1COc1ccc(/C=C/c2cccc(C(=O)O)c2)c(Cl)c1 | 27
CC(C)c1onc(COc2c(Cl)cc(Cl)cc2Cl)c1COc1ccc(/C=C/c2cccc(C(=O)O)c2)c(Cl)c1 | 68
CC(C)c1onc(-c2c(Cl)cncc2Cl)c1COc1ccc(/C=C/c2cccc(C(=O)O)c2)c(Cl)c1 | 88
CC(C)c1onc(COc2cccc(Cl)c2Cl)c1COc1ccc(/C=C/c2cccc(C(=O)O)c2)c(Cl)c1 | 38
O=C(O)c1cccc(/C=C/c2ccc(OCc3c(-c4c(Cl)cccc4Cl)noc3C3CCCC3)cc2Cl)c1 | 75
CC(C)c1onc(COC(C)(C)C)c1COc1ccc(/C=C/c2cccc(C(=O)O)c2)c(Cl)c1 | 132
CC(C)c1onc(CSc2nnnn2C)c1COc1ccc(/C=C/c2cccc(C(=O)O)c2)c(Cl)c1 | 45
CC(C)c1onc(-c2c(Cl)cccc2Cl)c1COc1ccc(/C=C/c2cccc(C(=O)O)c2)c(Cl)c1 | 100
Cc1cccc(Cl)c1OCc1noc(C(C)C)c1COc1ccc(/C=C/c2cccc(C(=O)O)c2)c(Cl)c1 | 111
CC(C)c1onc(COc2c(Cl)cccc2Cl)c1COc1ccc(/C=C/c2cccc(C(=O)O)c2)c(Cl)c1 | 89
CC(C)c1onc(COc2ccccc2Cl)c1COc1ccc(/C=C/c2cccc(C(=O)O)c2)c(Cl)c1 | 71
CC(C)c1onc(COc2ccc3ccccc3c2)c1COc1ccc(/C=C/c2cccc(C(=O)O)c2)c(Cl)c1 | 27
CC[C@H](C)c1onc(-c2c(Cl)cccc2Cl)c1COc1ccc(/C=C/c2cccc(C(=O)O)c2)c(Cl)c1 | 99
CC(C)c1onc(CCCc2ccccc2)c1COc1ccc(/C=C/c2cccc(C(=O)O)c2)c(Cl)c1 | 68
CC(C)c1onc(COc2c(Cl)cc(F)cc2Cl)c1COc1ccc(/C=C/c2cccc(C(=O)O)c2)c(Cl)c1 | 56

This collection of values is drawn from ChEMBL document CHEMBL1136905.
